This section presents compounds with their documented normalized growth values.
Experiment: chemical genetic growth profiling, strain panel (AID 1159580);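 also: tested at 20 µM; growth read once vehicle control cultures reached saturation at 30 °C; 1 = growth at the plate median or of vehicle wells; lower values mean less growth of the strain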
Conditions: S. cerevisiae deletion strains, growth OD, locus YGR078C, strain PAC10, stronger effect = lower value
Screen size: about 5,500 compounds; about 2,000 (36%) were called active. Roughly 18% stayed inconclusive and do not appear here. Some of the results follow.
QUANTITY KIND: normalized growth

• NCC(O)CC(=O)O (stereo not drawn) = 1.01
• COc1ccc(Br)c(-c2nnc(-c3ccccc3[N+](=O)[O-])o2)c1 = 1.02
• O=C(O)CCc1nc(-c2ccccc2)c(-c2ccccc2)o1 = 0.909
• COc1cccc2c1CCC1=CC(=O)CC[C@@]12C = 0.983
• CC[C@@]1(O)C(=O)OCc2c1cc1n(c2=O)Cc2cc3cc(O)ccc3nc2-1 = 1.02
• CSc1cc(C(F)(F)F)cc(SC)c1SC = 0.981
• O=C1CC(=O)CC(c2ccc(Cl)c(Cl)c2)C1 = 0.997
• CC1=CC(=O)C(C(C)C)=CC1=O = 0.547
• O=C(Nc1ccccc1)N1CCN(C(c2ccccc2)c2ccccc2)CC1 = 1
• COc1cc(C)c2c(=O)c3c(O)cc(OC)cc3oc2c1 = 1
• O=[N+]([O-])c1ccc(Oc2c(Cl)cccc2Cl)c(Cl)c1Oc1c(Cl)cccc1Cl = 0.984
• COC(=O)Cc1cc(OC)c(OC)cc1[N+](=O)[O-] = 1.03
• O=[N+]([O-])c1cccnc1Oc1ccc(Cl)cc1 = 0.886
• O=C(NCCCCO)OCC1c2ccccc2-c2ccccc21 = 0.991
• Cc1nnsc1C(=O)O/N=C1/CCSc2ccc(F)cc21 = 0.973
• COc1cc([N+](=O)[O-])c(OC)cc1SCC(=O)NNC(=O)c1cc(OC)c(OC)c(OC)c1 = 0.978
• CN(C)CC[C@H](c1ccc(Cl)cc1)c1ccccn1 = 1.01
• NC(N)=Nc1ccc(Cl)cc1 = 1.02
• O=C(Nc1ccc(OC(F)(F)F)cc1)Nc1cccc(C(=O)O)c1 = 1
• CCN(CCS(=O)(=O)c1ccc(C)cc1)S(=O)(=O)c1ccccc1 = 0.998
• COc1ccc(-c2cc(=O)c3c(O)cc(O)cc3o2)cc1O = 0.952
• N[C@H](CCC(=O)NCS(=O)(=O)O)C(=O)O = 0.997
• COc1cc(O)c2c(=O)cc(-c3ccc(OC)c(-c4c(O)cc(O)c5c(=O)cc(-c6ccc(O)cc6)oc45)c3)oc2c1 = 0.913

The origin of these recorded values is PubChem BioAssay AID1159580.
